System: human SMAD7 mRNA
protocolDescription: Antisense inhibition of human SMAD7 mRNA expression in Hep3B cells by 3-10-3 cEt gapmers, 10,000 nM, electroporation (Example 2)
Assay type: cell-based
testContext: Hep3B cells, electroporation with 10,000 nM antisense oligonucleotide, approximately 24 hours, SMAD7 mRNA by RT-PCR (RTS5062), relative to untreated control cells
Strand notation (5' to 3'): a small letter for the sugar, then the base; units joined by * are phosphorothioate-linked, units joined directly phosphodiester-linked; [ ] holds rarer units or linkages, { } end groups; capitals alone tell only the bases. k = constrained ethyl (cEt); [5mC] = 5-methylcytosine; d = 2'-deoxy (DNA)

{"columns": ["substance", "% Inhibition / %"],
 "data": [
  ["830085 (k[5mC]*kA*kG*dG*dA*dT*dA*d[5mC]*dA*d[5mC]*dT*dT*dA*kA*kT*k[5mC]; antisense) [compound 830085]", 27],
  ["799451 (antisense kA*kA*kA*dG*dA*dA*d[5mC]*dA*d[5mC]*dA*dG*d[5mC]*dA*k[5mC]*kT*kG) [compound 799451]", 41],
  ["830071 (kT*k[5mC]*kA*dA*dA*dG*dG*dT*dA*dA*dG*d[5mC]*d[5mC]*kA*kG*k[5mC]; antisense) [compound 830071]", 45],
  ["830122 (kG*kA*kG*dA*dA*dT*d[5mC]*dA*dA*dG*d[5mC]*d[5mC]*d[5mC]*kT*kG*kG; antisense) [compound 830122]", 57],
  ["830197 (antisense kG*kT*kT*dA*dA*dT*dG*dG*d[5mC]*d[5mC]*d[5mC]*dA*dG*k[5mC]*k[5mC]*k[5mC]) [compound 830197]", 31],
  ["798669 (k[5mC]*kG*k[5mC]*dT*d[5mC]*d[5mC]*dG*dT*dG*dG*d[5mC]*dA*dT*kG*k[5mC]*kG; antisense) [compound 798669]", 0],
  ["830029 (antisense kT*k[5mC]*kA*d[5mC]*dT*d[5mC]*d[5mC]*dA*d[5mC]*dT*d[5mC]*dA*d[5mC]*k[5mC]*kG*kA) [compound 830029]", 56],
  ["830042 (antisense k[5mC]*kA*kG*dG*dT*dT*dA*dA*dT*d[5mC]*dA*d[5mC]*dT*kT*k[5mC]*k[5mC]) [compound 830042]", 64],
  ["830161 (antisense kA*kG*kG*dT*dG*dA*dA*dA*dG*dT*dT*dA*dT*k[5mC]*kA*k[5mC]) [compound 830161]", 13],
  ["799948 (antisense kA*kT*kA*dT*dT*dG*d[5mC]*d[5mC]*dT*dG*dG*dT*dG*kT*kG*kA) [compound 799948]", 48],
  ["799455 (antisense kT*kG*kT*dT*dA*dA*dA*dG*dA*d[5mC]*dA*dG*dA*kG*kG*kA) [compound 799455]", 55],
  ["798870 (kG*kG*kG*dA*dA*d[5mC]*dA*d[5mC]*d[5mC]*dT*dT*dG*dT*kG*kT*kA; antisense) [compound 798870]", 14]
]}

====

Test system: human SMAD7 mRNA
protocolDescription: Dose-dependent inhibition of human SMAD7 mRNA expression in Hep3B cells (Example 3, Study 1 and 2)
Format: cell-based
testContext: 2220 nM, electroporation, approximately 16 hours, Study 2
Strand notation (5' to 3'): a small letter for the sugar, then the base; units joined by * are phosphorothioate-linked, units joined directly phosphodiester-linked; [ ] holds rarer units or linkages, { } end groups; capitals alone tell only the bases. k = constrained ethyl (cEt); [5mC] = 5-methylcytosine; d = 2'-deoxy (DNA)
Parameter threshold = 60%. Response is rule met when % inhibition of SMAD7 mRNA expression meets or exceeds it, else rule not met.

{"columns": ["substance", "experimentalTarget", "qualitativeLabel"],
 "data": [
  ["772568 (antisense kA*kG*k[5mC]*d[5mC]*dT*d[5mC]*dT*dT*dG*dA*d[5mC]*dT*dT*k[5mC]*k[5mC]*kG) [compound 772568]", "human SMAD7 mRNA", "rule met"],
  ["830135 (antisense kA*kA*kG*dT*dA*d[5mC]*dA*dA*dT*d[5mC]*dT*d[5mC]*d[5mC]*kT*kG*kG) [compound 830135]", "human SMAD7 mRNA", "rule not met"],
  ["799070 (antisense kA*kG*kG*dG*dA*dA*dT*dA*dA*dG*dA*d[5mC]*dA*kA*kG*kG) [compound 799070]", "human SMAD7 mRNA", "rule not met"],
  ["801040 (antisense kG*kT*k[5mC]*dA*dT*dG*dA*dA*dA*dG*dA*dT*dT*k[5mC]*kT*kT) [compound 801040]", "human SMAD7 mRNA", "rule not met"],
  ["799781 (kG*kT*k[5mC]*dA*dA*dT*dA*d[5mC]*dA*dT*dA*dT*dT*kT*kG*k[5mC]; antisense) [compound 799781]", "human SMAD7 mRNA", "rule met"]
]}
